The reported measurements were obtained from patent US6399782B1.

System name: human liver FBPase (Homo sapiens, UniProt P09467)
Sequence (P09467 2-338 limits assumed): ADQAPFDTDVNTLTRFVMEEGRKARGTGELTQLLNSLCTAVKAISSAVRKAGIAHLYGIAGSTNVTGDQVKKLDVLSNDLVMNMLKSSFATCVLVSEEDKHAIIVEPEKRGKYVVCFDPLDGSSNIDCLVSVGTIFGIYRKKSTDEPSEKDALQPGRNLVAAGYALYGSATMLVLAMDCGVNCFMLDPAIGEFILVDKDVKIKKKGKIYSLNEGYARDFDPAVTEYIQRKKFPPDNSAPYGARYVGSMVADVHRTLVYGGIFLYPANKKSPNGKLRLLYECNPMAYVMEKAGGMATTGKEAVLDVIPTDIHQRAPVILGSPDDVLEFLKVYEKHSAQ
pIC50: −log10 of the molar value.

{"columns": ["Molecule", "pIC50"],
 "data": [
  ["Nc1c(F)ccc2c1nc(-c1ccc(P(=O)(O)O)o1)n2CC1CC1", 7.26],
  ["NC(=O)c1ncn([C@@H]2O[C@H](COP(=O)(O)O)[C@@H](O)[C@H]2O)c1N [ZMP, reference compound]", 4.92]
]}

* * *

Form field: melting point (one value per entry).
Endpoint name: melting point

{"columns": ["Compound", "Reported measurement"],
 "data": [
  ["CC(C)Cn1c(-c2ccc(P(=O)(O)O)o2)nc2cc(Cl)c(Cl)cc21 [Compound 13.44]", "225 to 227 °C"],
  ["O=C(NCP(=O)(O)O)c1nc2ccccc2[nH]1 [Compound 13.66]", "258 to 260 °C"],
  ["C=Cc1cc(F)c(N)c2nc(-c3ccc(P(=O)(O)O)o3)n(CC(C)C)c12 [Compound 12.70]", "238 to 242 °C"],
  ["CC(C)Cn1c(-c2ccc(P(=O)(O)O)o2)nc2ccccc21 [Compound 13.2]", "200 to 203 °C"],
  ["Cc1c(Cl)cc2c(nc(-c3ccc(P(=O)(O)O)o3)n2CC2CC2)c1C [Compound 13.61]", "219 to 220 °C"],
  ["Nc1c(F)ccc2c1nc(-c1ccc(P(=O)(O)O)o1)n2CC1CC1 [Compound 12.61]", "258 to 260 °C"],
  ["CC(C)Cn1c(-c2ccc(P(=O)(O)O)o2)nc2c(N)c(F)cc(Br)c21 [Compound 12.62]", "195 to 200 °C"],
  ["NCCCCn1c(-c2ccc(P(=O)(O)O)o2)nc2ccc(Cl)cc21 (hydrate or solvate) [Compound 13.95]", "250 to 252 °C (dec.)"],
  ["CCc1cc(F)c(N)c2nc(-c3ccc(P(=O)(O)O)o3)n(CC3CC3)c12 [Compound 12.75]", "178 to 185 °C"],
  ["Cc1c(Cl)cc2c(nc(-c3ccc(P(=O)(O)O)o3)n2CCCCBr)c1C [Compound 13.90]", "212 to 216 °C"],
  ["CC(C)Cn1c(-c2ccc(P(=O)(O)O)o2)nc2c(N)c(Cl)cc(Cl)c21 [Compound 12.50]", "205 to 207 °C"],
  ["CC(C)Cn1c(-c2ccc(P(=O)(O)O)o2)nc2c(Br)cc(Br)cc21 [Compound 13.43]", "150 to 210 °C"],
  ["CCc1cc(F)c(N)c2c1nc(-c1ccc(P(=O)(O)O)o1)n2CC(C)C [Compound 12.65]", "249 to 250 °C"],
  ["CCCc1cc(F)c(N)c2nc(-c3ccc(P(=O)(O)O)o3)n(CC(C)C)c12 [Compound 12.81]", "220 to 230 °C (dec.)"],
  ["CC(C)Cn1c(-c2ccc(P(=O)(O)O)o2)nc2cc(F)c(F)c(F)c21 [Compound 12.77]", "250 to 260 °C"],
  ["Cc1c(C)c(C)c2[nH]c(-c3ccc(P(=O)(O)O)o3)nc2c1C [Compound 13.82]", "202 to 206 °C"],
  ["Nc1c(Br)c(Cl)c(Cl)c2nc(-c3ccc(P(=O)(O)O)o3)[nH]c12 [Compound 12.58]", "224 to 225 °C"],
  ["CC(C)Cn1c(-c2ccc(P(=O)(O)O)o2)nc2c(N)c(F)c(Cl)cc21 [Compound 12.63]", "175 to 180 °C"],
  ["CC(C)Cn1c(-c2ccc(P(=O)(O)O)o2)nc2c(N)c(F)cc(-c3ccc(F)cc3)c21 [Compound 12.68]", "239 to 240 °C (dec.)"],
  ["CC(C)Cn1c(-c2ccc(P(=O)(O)O)o2)nc2cc(Cl)c(F)cc21 [Compound 13.50]", "196 to 199 °C"],
  ["CC(C)Cn1c(-c2ccc(P(=O)(O)O)o2)nc2cc(F)c([N+](=O)[O-])c(Br)c21 [Compound 13.68]", "161 to 165 °C"],
  ["CCCc1ccc2c(nc(-c3ccc(P(=O)(O)O)o3)n2CC(C)C)c1N [Compound 12.60]", "207 to 210 °C"],
  ["CC(C)Cn1c(-c2ccc(P(=O)(O)O)o2)nc2c(N)c(F)cc(CCCBr)c21 [Compound 12.80]", "190 to 195 °C (dec.)"],
  ["COc1cccc(-c2cc(F)c(N)c3nc(-c4ccc(P(=O)(O)O)o4)n(CC(C)C)c23)c1 [Compound 12.74]", "208 to 212 °C (dec.)"],
  ["COc1ccc2c(nc(-c3ccc(P(=O)(O)O)o3)n2CC(C)C)c1N [Compound 12.55]", "212 to 213 °C"],
  ["CC(C)Cn1c(-c2ccc(P(=O)(O)O)o2)nc2c(N)c(F)cc(CCCO)c21 [Compound 12.79]", "170 to 173 °C"],
  ["CC(C)Cn1c(-c2ccc(P(=O)(O)O)o2)nc2c(N)c(F)cc(CCCCCl)c21 [Compound 12.83]", "210 to 220 °C (dec.)"],
  ["CC(C)Cn1c(-c2ccc(P(=O)(O)O)o2)nc2c(N)c(F)cc(-c3ccccc3)c21 [Compound 12.67]", "240 to 241 °C (dec.)"],
  ["CC(C)COc1cccc2c1nc(-c1ccc(P(=O)(O)O)o1)n2CC(C)C [Compound 13.20]", "350 °C"],
  ["CC(C)Cn1c(COCP(=O)(O)O)nc2c(N)c(F)cc(Br)c21 [Compound 15.1]", "200 to 202 °C (dec.)"],
  ["CC(C)Cn1c(-c2ccc(P(=O)(O)O)o2)nc2c(N)c(F)cc(-c3ccc(Cl)cc3)c21 [Compound 12.69]", "235 to 236 °C (dec.)"],
  ["Cl.NCCCCn1c(-c2ccc(P(=O)(O)O)o2)nc2cc(Cl)ccc21 (hydrate or solvate)", "236 to 240 °C (dec.)"],
  ["CCc1c(Cl)c(F)cc2[nH]c(-c3ccc(P(=O)(O)O)o3)nc12 [Compound 13.80]", "165 to 190 °C"]
]}

* * *

System name: mouse liver FBPase (Mus musculus)
Construct: This partially purified fraction was used for enzyme assays; from tissue; host or cells: mouse liver, 45-75% ammonium sulfate fraction
Sequence (Q9QXD6 2-338 limits assumed): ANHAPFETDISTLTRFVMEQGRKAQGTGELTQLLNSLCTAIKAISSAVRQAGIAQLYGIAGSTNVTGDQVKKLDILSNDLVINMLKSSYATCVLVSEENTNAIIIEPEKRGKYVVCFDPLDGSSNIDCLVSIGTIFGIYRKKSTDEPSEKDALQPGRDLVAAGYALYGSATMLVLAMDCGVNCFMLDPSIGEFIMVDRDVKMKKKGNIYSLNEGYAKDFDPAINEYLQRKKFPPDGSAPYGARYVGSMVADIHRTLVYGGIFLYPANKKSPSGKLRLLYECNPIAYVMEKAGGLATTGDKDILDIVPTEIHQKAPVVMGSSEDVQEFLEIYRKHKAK
Assay summary: Inhibition of mouse liver FBPase
Type: biochemical
Condition summary: partially purified mouse liver fraction
Method: Enzymatic activity was measured spectrophotometrically in reactions that coupled the formation of product (fructose 6-phosphate) to the reduction of dimethylthiazoldiphenyltetrazolium bromide (MTT) via NADP and phenazine methosulfate (PMS), using phosphoglucose isomerase and glucose 6-phosphate dehydrogenase as the coupling enzymes. […]
pIC50: −log10 of the molar value. Structures can show the parent of a compound that is named as a salt.

{"columns": ["Molecule", "Result comparator", "pIC50"],
 "data": [
  ["CC(C)Cn1c(-c2ccc(P(=O)(O)O)o2)nc2c(N)c(F)cc(Cl)c21", "=", 5.97],
  ["CC(C)Cn1c(-c2ccc(P(=O)(O)O)o2)nc2c(N)c(F)cc(CCCN(C)C)c21 [Compound 12.84, hydrobromide salt]", "=", 6.30],
  ["Cc1c(Cl)ccc2c1nc(-c1ccc(P(=O)(O)O)o1)n2CC(C)C", "=", 6.15],
  ["Nc1cccc2c1nc(-c1ccc(P(=O)(O)O)o1)n2CCCCl", "<", 4.70],
  ["CC(C)(C)Cn1c(-c2ccc(P(=O)(O)O)o2)nc2c(F)cccc21", "<", 4.70],
  ["CC(C)(C)Cn1c(-c2ccc(P(=O)(O)O)o2)nc2ccc(Cl)cc21", "<", 4.70],
  ["CC(C)Cn1c(COCP(=O)(O)O)nc2c(N)c(F)cc(Br)c21", "=", 5.82],
  ["CC(C)Cn1c(-c2ccc(P(=O)(O)O)o2)nc2c(O)cccc21", "<", 4.70],
  ["Nc1cccc2c1nc(-c1ccc(P(=O)(O)O)o1)n2Cc1ccoc1", "=", 5.90],
  ["COC(=O)c1cccc(Cn2c(-c3ccc(P(=O)(O)O)o3)nc3c(N)cccc32)c1", "<", 4.70],
  ["CC(C)Cn1c(-c2ccc(P(=O)(O)O)o2)nc2c(N)c(F)cc(CCCO)c21", "=", 6.14],
  ["CC(C)Cn1c(-c2ccc(P(=O)(O)O)o2)nc2c(N)c(F)cc(CCCBr)c21", "=", 6.52]
]}
